- System: Slc: ddy male mice
- TEST_DETAILS: Activity on stress ulcers (restraint and water immersion)
- Assay type: in vivo
- CONDITION_DETAILS: length of ulcer in glandular stomach; 30 mg/kg orally; restrained and immersed in water of 23°C for 7 hours

{"columns": ["COMPOUND", "Inhibition rate (%)"],
 "data": [
  ["CCOC(=O)C1=C(C)NC(C)=C(C(=O)Nc2ccc(C3=NNC(=O)CC3)cc2)C1c1cc(C#CC(C)(C)O)ccc1OC (centres unmarked)", 79.3],
  ["C#Cc1cccc(C2C(C(=O)Nc3ccc(C4=NNC(=O)CC4CC)cc3)=C(C)NC(N)=C2C(=O)OCCOC)c1 (centres unmarked)", 94.3],
  ["C#Cc1cccc(C2C(C(=O)Nc3ccc(C4=NNC(=O)CC4CC)cc3)=C(C)NC(C)=C2C(=O)OC)c1 (centres unmarked)", 92.6],
  ["C#Cc1cccc(C2C(C(=O)Nc3ccc(C4=NNC(=O)CC4C)cc3)=C(C)NC(N)=C2C(=O)OCC)c1 (centres unmarked)", 91.7],
  ["C#Cc1cccc(C2C(C(=O)Nc3ccc(C4=NNC(=O)CC4)cc3)=C(C)NC(N)=C2C(=O)OCC)c1 (centres unmarked)", 98.7]
]}

---

- Test system: platelet aggregation
- TEST_DETAILS: Inhibitory activity on platelet aggregation (turbidimetry)
- Assay type: cell-based, New Zealand White male rabbits
- CONDITION_DETAILS: compound 10⁻⁶ M; 2 µg/mℓ collagen

{"columns": ["MOLECULE", "SYSTEM_TESTED", "Inhibition rate (%) Collagen aggregation"],
 "data": [
  ["C#Cc1cccc(C2C(C(=O)Nc3ccc(C4=NNC(=O)CC4CC)cc3)=C(C)NC(C)=C2C(=O)OC)c1 (stereo not shown)", "platelet aggregation", 91],
  ["CCOC(=O)C1=C(C)NC(C)=C(C(=O)Nc2ccc(C3=NNC(=O)CC3)cc2)C1c1cc(C#CC(C)(C)O)ccc1OC (stereo not shown)", "platelet aggregation", 100],
  ["C#Cc1cccc(C2C(C(=O)Nc3ccc(C4=NNC(=O)CC4C)cc3)=C(C)NC(N)=C2C(=O)OCC)c1 (stereo not shown)", "platelet aggregation", 100],
  ["C#Cc1cccc(C2C(C(=O)Nc3ccc(C4=NNC(=O)CC4)cc3)=C(C)NC(N)=C2C(=O)OCC)c1 (stereo not shown)", "platelet aggregation", 96]
]}

---

- System: Aortae abdominalis of male Wister rats
- TEST_DETAILS: Anti-norepinephrine activity on rat abdominal aorta strip preparations (auto-Magnus apparatus)
- CONDITION_DETAILS: compound 10⁻⁷ M; tension by norepinephrine (10⁻⁷M) regarded as 100
- Experimental: Aortae abdominalis of male Wister rats (8-12 weeks) were delivered and cut in spiral-shape to be strip preparations. Each test compounds was disolved in DMSO. Then, the solution was diluted with distilled water and prepared to be desired concentration. Using an auto-Magnus apparatus, as to the vasoconstriction after adding norepinephrine, contractive forces were measured under the existence of the test compounds.
Parameter Contractive force: see the listing below.
MEASURE_NAME: Contractive force

{"columns": ["COMPOUND", "SYSTEM_TESTED", "MEASURED_NUMBER"],
 "data": [
  ["C#Cc1ccc(OC)c(C2C(C(=O)Nc3ccc(C4=NNC(=O)CC4)cc3)=C(C)NC(C)=C2C(=O)OCC)c1 (stereo not drawn)", "Aortae abdominalis of male Wister rats", 16.3],
  ["C#Cc1cccc(C2C(C(=O)Nc3ccc(C4=NNC(=O)CC4CC)cc3)=C(C)NC(C)=C2C(=O)OC)c1 (stereo not drawn)", "Aortae abdominalis of male Wister rats", 14.9],
  ["C#Cc1cccc(C2C(C(=O)Nc3ccc(C4=NNC(=O)CC4CC)cc3)=C(C)NC(N)=C2C(=O)OCCOC)c1 (stereo not drawn)", "Aortae abdominalis of male Wister rats", 12.1],
  ["C#Cc1cccc(C2C(C(=O)Nc3ccc(C4=NNC(=O)CC4)cc3)=C(C)NC(N)=C2C(=O)OCC)c1 (stereo not drawn)", "Aortae abdominalis of male Wister rats", 10.3],
  ["CCOC(=O)C1=C(N)NC(C)=C(C(=O)Nc2ccc(C3=NNC(=O)CC3)cc2)C1c1cccc(C#CC(C)(C)O)c1 (stereo not drawn)", "Aortae abdominalis of male Wister rats", 11.1],
  ["CCOC(=O)C1=C(C)NC(C)=C(C(=O)Nc2ccc(C3=NNC(=O)CC3)cc2)C1c1cc(C#CC(C)(C)O)ccc1OC (stereo not drawn)", "Aortae abdominalis of male Wister rats", 8.9]
]}

---

Parameter Contractive force: see the listing below.
- Test system: Aortae abdominalis of male Wister rats
- TEST_DETAILS: Anti-norepinephrine activity on rat abdominal aorta strip preparations (auto-Magnus apparatus)
- CONDITION_DETAILS: compound 10⁻⁸ M; tension by norepinephrine (10⁻⁷M) regarded as 100

{"columns": ["COMPOUND", "Contractive force"],
 "data": [
  ["C#Cc1ccc(OC)c(C2C(C(=O)Nc3ccc(C4=NNC(=O)CC4)cc3)=C(C)NC(C)=C2C(=O)OCC)c1 (stereo not drawn)", 90.5],
  ["CCOC(=O)C1=C(C)NC(C)=C(C(=O)Nc2ccc(C3=NNC(=O)CC3)cc2)C1c1cc(C#CC(C)(C)O)ccc1OC (stereo not drawn)", 70.1],
  ["C#Cc1cccc(C2C(C(=O)Nc3ccc(C4=NNC(=O)CC4CC)cc3)=C(C)NC(C)=C2C(=O)OC)c1 (stereo not drawn)", 84.9],
  ["C#Cc1cccc(C2C(C(=O)Nc3ccc(C4=NNC(=O)CC4CC)cc3)=C(C)NC(N)=C2C(=O)OCCOC)c1 (stereo not drawn)", 70.9],
  ["C#Cc1cccc(C2C(C(=O)Nc3ccc(C4=NNC(=O)CC4)cc3)=C(C)NC(N)=C2C(=O)OCC)c1 (stereo not drawn)", 69.4],
  ["CCOC(=O)C1=C(N)NC(C)=C(C(=O)Nc2ccc(C3=NNC(=O)CC3)cc2)C1c1cccc(C#CC(C)(C)O)c1 (stereo not drawn)", 72.4]
]}

---

Parameter LD50 at 168 h: see the listing below.
- TEST_DETAILS: Acute toxicity
- Type: in vivo, mice
- CONDITION_DETAILS: mouse, in vivo; oral administration, death rate after 7 days; read-out: LD₅₀
- Experimental: In each group, 6 Slc: ddy male mice weighing 25 to 29 g (6 weeks) were employed. Each compound was administered orally thereto and a value of acute toxicity was evaluated with death rate after 7 days.
MEASURE_NAME: LD50 at 168 h (mg/kg)

{"columns": ["COMPOUND", "UNIT_TEXT", "MEASURED_NUMBER"],
 "data": [
  ["C#Cc1cccc(C2C(C(=O)Nc3ccc(C4=NNC(=O)CC4CC)cc3)=C(C)NC(N)=C2C(=O)OCCOC)c1 (stereo not shown)", "mg/kg", 1000],
  ["CCOC(=O)C1=C(N)NC(C)=C(C(=O)Nc2ccc(C3=NNC(=O)CC3)cc2)C1c1cccc(C#CC(C)(C)O)c1 (stereo not shown)", "mg/kg", 1100],
  ["C#Cc1cccc(C2C(C(=O)Nc3ccc(C4=NNC(=O)CC4)cc3)=C(C)NC(N)=C2C(=O)OCC)c1 (stereo not shown)", "mg/kg", 1200],
  ["CCOC(=O)C1=C(C)NC(C)=C(C(=O)Nc2ccc(C3=NNC(=O)CC3)cc2)C1c1cc(C#CC(C)(C)O)ccc1OC (stereo not shown)", "mg/kg", 1000]
]}

---

Parameter Inhibition rate (%) Collagen aggregation: see the listing below.
- System: platelet aggregation
- TEST_DETAILS: Inhibitory activity on platelet aggregation (turbidimetry)
- Format: cell-based, New Zealand White male rabbits
- CONDITION_DETAILS: compound 10⁻⁶ M; 2 µg/mℓ collagen

{"columns": ["COMPOUND", "Inhibition rate (%) Collagen aggregation"],
 "data": [
  ["C#Cc1cccc(C2C(C(=O)Nc3ccc(C4=NNC(=O)CC4)cc3)=C(C)NC(C)=C2C(=O)OCCOC)c1 (centres unmarked)", 100],
  ["C#Cc1ccc(OC)c(C2C(C(=O)Nc3ccc(C4=NNC(=O)CC4)cc3)=C(C)NC(C)=C2C(=O)OCC)c1 (centres unmarked)", 100],
  ["C#Cc1cccc(C2C(C(=O)Nc3ccc(C4=NNC(=O)CC4CC)cc3)=C(C)NC(N)=C2C(=O)OCCOC)c1 (centres unmarked)", 91],
  ["C#Cc1cccc(C2C(C(=O)Nc3ccc(C4=NNC(=O)CC4)cc3)=C(C)NC(C)=C2C(=O)OCC)c1 (centres unmarked)", 95],
  ["CCOC(=O)C1=C(N)NC(C)=C(C(=O)Nc2ccc(C3=NNC(=O)CC3)cc2)C1c1cccc(C#CC(C)(C)O)c1 (centres unmarked)", 90]
]}

Sourced from patent EP0503079A1
